- system-under-test: Corticotropin-releasing factor receptor 2/Corticotropin-releasing factor-binding protein (Homo sapiens, UniProt P24387+Q13324)
- Sequence (Q13324 whole entry): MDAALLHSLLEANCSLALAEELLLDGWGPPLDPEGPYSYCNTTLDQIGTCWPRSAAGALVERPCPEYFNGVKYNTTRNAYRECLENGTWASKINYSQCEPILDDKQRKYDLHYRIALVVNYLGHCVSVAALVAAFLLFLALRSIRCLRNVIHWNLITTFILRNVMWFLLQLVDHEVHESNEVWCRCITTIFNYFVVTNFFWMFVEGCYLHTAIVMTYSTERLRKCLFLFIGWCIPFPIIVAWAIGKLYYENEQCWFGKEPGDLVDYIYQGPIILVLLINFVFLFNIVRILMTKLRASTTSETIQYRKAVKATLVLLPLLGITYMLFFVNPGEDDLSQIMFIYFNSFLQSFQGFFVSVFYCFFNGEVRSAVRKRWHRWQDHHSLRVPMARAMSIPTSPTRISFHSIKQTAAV
- Sequence (P24387 whole entry): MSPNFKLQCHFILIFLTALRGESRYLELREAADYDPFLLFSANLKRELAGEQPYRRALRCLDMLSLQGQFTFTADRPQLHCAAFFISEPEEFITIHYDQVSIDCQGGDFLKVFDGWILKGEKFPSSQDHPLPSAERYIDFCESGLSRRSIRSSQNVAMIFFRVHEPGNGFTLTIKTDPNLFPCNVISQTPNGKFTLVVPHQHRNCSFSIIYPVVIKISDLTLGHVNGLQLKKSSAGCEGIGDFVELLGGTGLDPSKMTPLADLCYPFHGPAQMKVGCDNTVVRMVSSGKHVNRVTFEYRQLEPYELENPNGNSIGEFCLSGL
- method-notes: activators of CRF receptor 2 with binding protein – uHTS hits, confirmation (AID 602473)
- Format: functional
- condition-summary: read-out: EC50_Mean
The source made the active and inactive calls.
Possible outcomes: yes (1) for active, no (0) for inactive

structure-notation: CCOc1ccccc1N(CC(=O)N1CCOCC1)S(=O)(=O)c1ccc(SC)cc1
label-value: yes (1)
--
structure-notation: O=C(Nc1cc(Cl)cc(Cl)c1)c1coc(=O)c(Br)c1
label-value: yes (1)
--
structure-notation: CC1(C)Cc2ccccc2-c2c1c(=O)n(Cc1ccccc1)c1nnnn21
label-value: no (0)

====

- system-under-test: Calpain-2 catalytic subunit (Sus scrofa)
- method-notes: pig calpain II inhibitor potency, dose response, biochemical, fluorogenic peptide substrate (AID 1420)
- Format: functional
Measured IC50 of individual entries

structure-notation: CC(C)C[C@H](NC(=O)c1[nH]cnc1C(=O)N[C@@H](C)c1ccccc1)C(=O)OCc1ccccc1
IC50: 5.23 µM (not active)
--
structure-notation: Cc1cc([N+](=O)[O-])nn1CCCC(=O)Nc1cc(Oc2ccccc2)cc([N+](=O)[O-])c1
IC50: 5.32 µM (not active)
--
structure-notation: CCOc1ccc(S(=O)(=O)N2CCCCC2)c(C)c1C
IC50: 32.6 µM (not active)
--
structure-notation: Cc1cc(NC(=O)c2ccc3c(c2)C(=O)N(CCC(C)C)C3=O)no1
IC50: 17.2 µM (not active)

====

- system-under-test: Cytochrome P450 1A2 (Homo sapiens, UniProt P05177);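 also: PubChem cytochrome P450 panel assay, CYP1A2 panel member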
- Sequence (P05177 whole entry): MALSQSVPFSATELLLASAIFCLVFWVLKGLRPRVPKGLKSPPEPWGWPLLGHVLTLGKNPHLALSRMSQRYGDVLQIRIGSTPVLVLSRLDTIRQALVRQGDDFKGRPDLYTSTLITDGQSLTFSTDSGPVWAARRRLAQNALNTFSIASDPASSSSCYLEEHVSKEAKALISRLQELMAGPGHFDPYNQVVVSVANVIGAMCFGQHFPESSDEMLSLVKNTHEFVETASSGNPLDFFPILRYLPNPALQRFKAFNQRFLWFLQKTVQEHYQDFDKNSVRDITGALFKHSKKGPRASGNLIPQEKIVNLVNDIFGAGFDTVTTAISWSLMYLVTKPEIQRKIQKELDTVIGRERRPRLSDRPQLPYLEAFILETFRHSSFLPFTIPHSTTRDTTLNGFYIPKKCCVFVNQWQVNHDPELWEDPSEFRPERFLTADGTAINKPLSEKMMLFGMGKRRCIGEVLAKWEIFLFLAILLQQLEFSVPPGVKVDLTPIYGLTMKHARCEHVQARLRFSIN
measured-property: AC50

compound: CCc1cc(C(=O)NN=C(S)NCC2CCCO2)cs1 (configuration not stated)
result: 17.8 µM (inconclusive)
//
compound: c1cncc([C@@H]2CCCCN2)c1 [ANABASINE]
result: 5.01 µM (inconclusive)
//
compound: c1ccc(CCNc2nnnn2-c2ccccc2)cc1
result: 2.51 µM (inconclusive)
//
compound: O=C(COC(=O)c1cccc(S(=O)(=O)N2CCOCC2)c1)Nc1nc(-c2ccccc2Cl)cs1
result: 8.91 µM (inconclusive)
//
compound: COC(=O)CCC(=O)NNC(=O)c1ccc(Br)cc1
result: 11.2 µM (inconclusive)
//
compound: Cn1cccc1C(=O)N1CCC2(CCCN(Cc3ccc(C#N)cc3)C2)CC1
result: 12.6 µM (inconclusive)
//
compound: O=C(NCC1CCCO1)c1nn2c(c1Cl)NC(c1ccc(F)cc1)CC2C(F)(F)F (configuration not stated)
result: 12.6 µM (inconclusive)

====

Measured IC50 of individual entries
- system-under-test: Calpain-2 catalytic subunit (Sus scrofa, UniProt P43367)
- Sequence (P43367 whole entry): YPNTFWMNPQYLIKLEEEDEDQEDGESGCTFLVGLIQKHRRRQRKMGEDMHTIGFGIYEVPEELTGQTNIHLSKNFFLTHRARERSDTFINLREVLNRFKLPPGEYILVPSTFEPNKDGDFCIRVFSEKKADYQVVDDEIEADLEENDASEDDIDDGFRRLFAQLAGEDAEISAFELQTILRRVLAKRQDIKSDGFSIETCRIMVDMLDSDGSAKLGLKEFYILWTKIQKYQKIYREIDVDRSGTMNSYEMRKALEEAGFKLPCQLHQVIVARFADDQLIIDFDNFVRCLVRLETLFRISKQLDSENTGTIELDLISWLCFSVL
- method-notes: pig calpain II inhibitor potency, dose response, biochemical, fluorogenic peptide substrate (AID 1420)
- Format: functional
measured-property: IC50

structure-notation: Cn1nc(-c2ccc(Cl)cc2)nc2c(=O)n(C)c(=O)nc1-2
result: 24.7 µM (not active)

structure-notation: SC1=Nc2ccccc2C1
result: 14.9 µM (not active)

structure-notation: CC(C)CCNc1nc2c(c(=O)n(Cc3cccc(F)c3)c(=O)n2C)n1C
result: 44.7 µM (not active)

structure-notation: CCN(CCCNC(=O)CCn1c(=O)[nH]c2ccsc2c1=O)c1ccccc1
result: < 0.4 µM (not active)

====

Measured EC50 of individual entries
- system-under-test: Streptokinase A (Streptococcus pyogenes serotype M1, UniProt P10520)
- Sequence (P10520 whole entry): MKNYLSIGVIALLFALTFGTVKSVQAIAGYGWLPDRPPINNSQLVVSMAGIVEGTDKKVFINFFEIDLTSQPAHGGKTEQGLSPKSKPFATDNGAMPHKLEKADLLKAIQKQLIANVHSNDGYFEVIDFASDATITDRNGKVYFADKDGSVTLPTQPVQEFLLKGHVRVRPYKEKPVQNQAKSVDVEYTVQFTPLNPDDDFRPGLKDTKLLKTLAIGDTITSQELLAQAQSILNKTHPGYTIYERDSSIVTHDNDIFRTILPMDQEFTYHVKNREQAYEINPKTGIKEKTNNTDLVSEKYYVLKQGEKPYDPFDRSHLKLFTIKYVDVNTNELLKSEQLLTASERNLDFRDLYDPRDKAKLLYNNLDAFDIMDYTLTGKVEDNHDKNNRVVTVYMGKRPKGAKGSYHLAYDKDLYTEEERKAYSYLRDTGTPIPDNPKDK
- method-notes: S. pyogenes streptokinase expression inhibitors, potency, dose response, plasminogen activation absorbance, OD405 (AID 1914);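 also: secreted streptokinase activity via plasminogen activation per viability signal from cell pellet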
- Type: functional, Streptococcus pyogenes M1 GAS
Activity calls are given as the source filed them.

compound: Cc1c(NCc2cc(Cl)cc(Cl)c2O)c(=O)n(-c2ccccc2)n1C
EC50: 21.1 µM (active)
--
compound: C/C(=N\Nc1nc(N2CCCCCC2)nc(N2CCCCCC2)n1)c1ccccc1
EC50: 5.5 µM (active)
--
compound: COC(=O)N/N=C/c1c[n+]([O-])c2ccccc2[n+]1[O-] [CARBADOX]
EC50: > 150 µM (not active)
--
compound: CCCc1cc(C(=O)Nc2ccc(C(=O)c3ccc(F)cc3)cc2)n(C)n1
EC50: 46.9 µM (active)
--
compound: CCOc1cc(/C=C\[N+](=O)[O-])ccc1OCC(=O)Nc1ccccc1C
EC50: 4.73 µM (active)
--
compound: Cc1nn2c(NCc3ccccn3)cc(C(C)C)nc2c1-c1ccccc1
EC50: 6.95 µM (active)
--
compound: O=C(Cc1ccc([N+](=O)[O-])cc1)N/N=C/c1ccc([N+](=O)[O-])o1
EC50: 37 µM (active)
--
compound: CCOc1ccc(NC(=O)CN(C)C(=O)C2CC(=O)N(c3ccc4c(c3)OCCO4)C2)cc1OCC (stereo not given)
EC50: > 150 µM (not active)
--
compound: CCN(CC)S(=O)(=O)c1cccc(C(=O)Nc2nc3cc4c(cc3s2)OCCO4)c1
EC50: > 150 µM (not active)
--
compound: O=C(CSC(=S)N1CCOCC1)c1cc(Br)cc(Br)c1O
EC50: > 150 µM (not active)

====

- system-under-test: Cytochrome P450 2C19 (Homo sapiens, UniProt P33261)
- Sequence (P33261 whole entry): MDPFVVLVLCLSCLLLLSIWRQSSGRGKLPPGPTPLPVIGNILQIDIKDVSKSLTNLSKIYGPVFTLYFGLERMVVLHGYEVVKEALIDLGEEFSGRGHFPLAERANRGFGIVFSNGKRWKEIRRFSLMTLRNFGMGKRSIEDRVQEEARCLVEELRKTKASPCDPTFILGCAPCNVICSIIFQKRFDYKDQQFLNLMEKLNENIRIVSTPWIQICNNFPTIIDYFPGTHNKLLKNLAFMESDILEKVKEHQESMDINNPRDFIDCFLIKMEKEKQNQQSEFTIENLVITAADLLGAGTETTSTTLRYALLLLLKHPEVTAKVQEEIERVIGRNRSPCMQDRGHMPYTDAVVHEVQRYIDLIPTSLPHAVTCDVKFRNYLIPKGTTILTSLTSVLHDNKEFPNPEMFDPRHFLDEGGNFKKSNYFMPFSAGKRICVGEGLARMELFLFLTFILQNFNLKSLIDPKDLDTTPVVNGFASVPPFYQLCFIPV
- method-notes: Cytochrome panel assay with activity outcomes. Panel member name: p450-cyp2c19 Compounds with AC50 equal or less than 10 uM are considered active
- Format: functional
- condition-summary: read-out: AC50
measured-property: AC50

structure-notation: CCOc1c2ccc(C(=O)NCc3ccc(OC(F)(F)F)cc3)cc2nn1CC
measured-property: AC50
result: 39.8 µM (inconclusive)
//
structure-notation: COCCn1c(=O)[nH]c2cc(C(=O)N3CCN(c4ccccc4OC)CC3)ccc2c1=O
measured-property: AC50
result: 6.31 µM (inconclusive)
//
structure-notation: O=C(Nc1ccccc1)N1CCC2(CC1)CCN(C(=O)c1ccco1)CC2
measured-property: AC50
result: 39.8 µM (inconclusive)
//
structure-notation: O=C(COC(=O)c1cccnc1Cl)c1ccccc1
measured-property: AC50
result: 39.8 µM (inconclusive)
//
structure-notation: CCc1c(C)c(C#N)c2nc3ccccc3n2c1Nc1c(C)n(C)n(-c2ccccc2)c1=O
measured-property: AC50
result: 25.1 µM (inconclusive)
//
structure-notation: O=C(Oc1ccccc1)N1CCC2(CC1)CCN(c1ccccn1)CC2
measured-property: AC50
result: 20 µM (inconclusive)
//
structure-notation: N#Cc1ccccc1-c1ccc2ncnc(NCc3cccs3)c2c1
measured-property: AC50
result: 39.8 µM (inconclusive)
//
structure-notation: Cc1ccc(C(=O)Nc2ccc(C(=O)/C=C/c3cccs3)cc2)cc1
measured-property: AC50
result: 7.08 µM (inconclusive)
